# Experiment notes: Solubility in water
# Format: physicochemical

[
  {
    "Molecule": "CN(C)CCc1c[nH]c2cccc(OP(=O)(O)O)c12 [Psilocybin]",
    "solubility": "~15 mg/mL"
  }
]

Just for reference, patent US12662498B2 is where these values come from.
